Listing of entries alongside the reported IC50.
# System: LS-411N
# experimental_details: cells
# Type: functional, cell-based
# conditions_used: Homo sapiens
The figure you give is taken to be in µM; do not add the unit.

Below, 5 compounds whose answers are already recorded.
CC(C)=CC[C@@H](O)C1=CC(=O)c2c(O)ccc(O)c2C1=O :: 3.19
Cc1ccc(NC(=O)c2cccc(C(C)(C)C#N)c2)cc1Nc1ccc2ncn(C)c(=O)c2c1 :: 0.0916
CCNC(=O)c1noc(-c2cc(C(C)C)c(O)cc2O)c1-c1ccc(CN2CCOCC2)cc1 :: 0.0373
CC[C@@]1(O)C(=O)OCc2c1cc1n(c2=O)Cc2cc3ccccc3nc2-1 :: 0.0581
Fc1cc(-c2cc[nH]/c(=N/c3ccc(-n4cnc(N5CCOCC5)n4)cc3)n2)cc(N2CCOCC2)c1 :: 0.198

Shifting focus to the compound that follows.
For this compound ( `Cc1n[nH]c2ccc(-c3cncc(OC[C@@H](N)Cc4c[nH]c5ccccc45)c3)cc12` ), measured IC50 is 0.0875

---

# System: A673;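 further: growth inhibition of human A673 cells, read out through a cell viability assay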
# experimental_details: cells
# Type: functional, cell-based
# conditions_used: Homo sapiens
# Description: SANGER: Inhibition of human A673 cell growth in a cell viability assay.
property_measured: IC50 (nM)
The figure you give is taken to be in nM; do not add the unit.

CO[C@@]12[C@H](COC(N)=O)C3=C(C(=O)C(C)=C(N)C3=O)N1C[C@@H]1N[C@@H]12 [MITOMYCIN] :: 790

Shifting focus to the compound that follows.
For this compound ( CCNC(=O)c1noc(-c2cc(C(C)C)c(O)cc2O)c1-c1ccc(CN2CCOCC2)cc1 [LUMINESPIB] ), measured IC50 is 104

---

# System: KYSE-410;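 further: growth inhibition of KYSE-410 cells, measured through a cell viability readout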
# experimental_details: cells
# Format: functional, cell-based
# conditions_used: Homo sapiens
# Description: SANGER: Inhibition of human KYSE-410 cell growth in a cell viability assay.
Listing of entries alongside the reported IC50.

Below, 3 compounds whose answers are already recorded.
O=c1[nH]c2ccccc2n1C1CCN(Cc2ccc(-c3nc4cc5[nH]cnc5cc4nc3-c3ccccc3)cc2)CC1 :: > 2.56 µM
CCCS(=O)(=O)Nc1ccc(F)c(C(=O)c2c[nH]c3ncc(Cl)cc23)c1F :: > 10 µM
CO[C@@]12[C@H](COC(N)=O)C3=C(C(=O)C(C)=C(N)C3=O)N1C[C@@H]1N[C@@H]12 :: 0.584 µM

Shifting focus to the compound that follows.
Per the reported KYSE-410 data, `C[C@]1(c2nc3c(C(N)=O)cccc3[nH]2)CCCN1` has IC50 of > 5 µM

---

# System: KU-19-19
# experimental_details: cells
# Format: functional, cell-based
# conditions_used: Homo sapiens
# Description: SANGER: Inhibition of human KU-19-19 cell growth in a cell viability assay.
property_measured: IC50

CC(C)=CC[C@@H](O)C1=CC(=O)c2c(O)ccc(O)c2C1=O [SHIKONIN] :: 3.18 µM
COc1cc(Nc2c(C#N)cnc3cc(OCCCN4CCN(C)CC4)c(OC)cc23)c(Cl)cc1Cl [BOSUTINIB] :: > 2 µM
O=c1cc(N2CCOCC2)oc2c(-c3cccc4c3sc3ccccc34)cccc12 :: > 2 µM
CC(=O)c1c(C)c2cnc(Nc3ccc(N4CCNCC4)cn3)nc2n(C2CCCC2)c1=O [PALBOCICLIB] :: > 4 µM
N#C/C(=C1/Nc2ccccc2S1)c1ccnc(NCCc2cccnc2)n1 :: > 8 µM
C/C(O)=C(\C#N)C(=O)Nc1cc(Br)ccc1Br :: > 16 µM

For this compound ( CC(O)(CS(=O)(=O)c1ccc(F)cc1)C(=O)Nc1ccc(C#N)c(C(F)(F)F)c1 (configuration not stated) [BICALUTAMIDE] ), measured IC50 is > 1.02 µM
